Recorded values, source patent US20180162911A1.

System: C3NeF (patient IgG)
test details: Peptide inhibition assay with patients' IgG: reduction of C3NeF stabilization of the C3bBb convertase
Format: biochemical, human
stated conditions: in presence of Properdin_like C3NeF
recorded metric: percentage of inhibition vs control

{"substance": "G-QDEENQKQCQDLGAFTESMVVFNIENLQKTVWD (GQDEENQKQCQDLGAFTESMVVFNIENLQKTVWD; N-terminal G; Synthetic pep1) [peptide 1, 22 residues of C3b (1616-1637) and 11 residues of Bb (308-318)]", "recorded metric": "percentage of inhibition vs control", "observed value": "significantly higher"}
{"substance": "SMVVFLKHDEYNIENLQKTVWD (Synthetic pep1BbExt) [22 aminoacids comprising 5 aa on C3b and 17 from FB]", "recorded metric": "percentage of inhibition vs control", "observed value": "significantly higher"}
{"substance": "GENQKQCQDLGAFTESMVVFLKHDE (Synthetic pep1C3bExt)", "recorded metric": "percentage of inhibition vs control", "observed value": "significantly higher"}
